Cited source: patent US9440957B2

- target.or.system: EGFR(L858R/T790M) (Homo sapiens, UniProt P00533, L858R/T790M)
- Construct: purchased from Carna (GST-a.a. 669-1210)
- Sequence (P00533 669-1210 T790M/L858R): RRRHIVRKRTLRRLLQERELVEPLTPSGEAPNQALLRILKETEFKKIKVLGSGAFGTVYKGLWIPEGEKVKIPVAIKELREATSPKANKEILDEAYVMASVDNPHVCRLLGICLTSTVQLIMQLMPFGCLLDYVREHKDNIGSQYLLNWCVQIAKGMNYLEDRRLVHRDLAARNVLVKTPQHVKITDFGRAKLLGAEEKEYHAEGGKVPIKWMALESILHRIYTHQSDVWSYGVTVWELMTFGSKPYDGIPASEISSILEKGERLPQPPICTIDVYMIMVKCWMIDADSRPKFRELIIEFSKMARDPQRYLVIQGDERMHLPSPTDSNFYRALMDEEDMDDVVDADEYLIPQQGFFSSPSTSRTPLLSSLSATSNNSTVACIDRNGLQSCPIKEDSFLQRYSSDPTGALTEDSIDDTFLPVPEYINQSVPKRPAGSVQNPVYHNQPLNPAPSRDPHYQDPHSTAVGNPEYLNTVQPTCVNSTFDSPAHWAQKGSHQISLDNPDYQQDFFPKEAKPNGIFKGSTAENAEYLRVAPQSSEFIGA
- measurement.notes: EGFR biochemical assay (HTRF), IC50 determinations
- measurement.setup: EGFR (L858R/T790M) with no pre-incubation; read-out: IC50 (μM) Column A
quantity: IC50 (µM)

Please review the following examples before continuing.
[[record]]
compound = "C=CC(=O)N1CCOCC(n2c(NC(=O)c3cccc(C(F)(F)F)c3)nc3cccc(C)c32)C1 (stereo not shown) [Example 17-14]"
target_or_system = "EGFR(L858R/T790M) (Homo sapiens, UniProt P00533, L858R/T790M)"
quantity = "IC50"
test_value = 0.033

[[record]]
compound = "COc1ccc(C(=O)Nc2nc3cccc(C)c3n2C2CCCCN(C(=O)/C=C/CN(C)C)C2)cn1 (stereo not shown)"
target_or_system = "EGFR(L858R/T790M) (Homo sapiens, UniProt P00533, L858R/T790M)"
quantity = "IC50"
test_value = 0.006

[[record]]
compound = "C=CC(=O)N1CCCC[C@@H](n2c(NC(=O)c3ccnc(C)c3)nc3cc(CN4CC[C@H](OC)C4)cc(C)c32)C1"
target_or_system = "EGFR(L858R/T790M) (Homo sapiens, UniProt P00533, L858R/T790M)"
quantity = "IC50"
test_value = 0.002

[[record]]
compound = "Cc1cc(C(=O)Nc2nc3cccc(Cl)c3n2[C@@H]2CCCCN(C(=O)/C=C/CN3CCCC3)C2)ccn1"
target_or_system = "EGFR(L858R/T790M) (Homo sapiens, UniProt P00533, L858R/T790M)"
quantity = "IC50"
test_value = 0.007

[[record]]
compound = "Cc1cccc2nc(NC(=O)c3ccccc3F)n(C3CCCCN(C(=O)/C=C/CN(C)C)C3)c12 (stereo not shown)"
target_or_system = "EGFR(L858R/T790M) (Homo sapiens, UniProt P00533, L858R/T790M)"
quantity = "IC50"
test_value = 0.026

[[record]]
compound = "C=CC(=O)N1CCN(C(=O)OC(C)(C)C)CC(n2c(NC(=O)c3ccnc(C)c3)nc3cccc(Cl)c32)C1 (stereo not shown)"
target_or_system = "EGFR(L858R/T790M) (Homo sapiens, UniProt P00533, L858R/T790M)"
quantity = "IC50"
test_value = 0.271

[[record]]
compound = "Cc1cccc2nc(NC(=O)c3cnco3)n(C3CCCCN(C(=O)/C=C/CN(C)C)C3)c12 (stereo not shown)"
target_or_system = "EGFR(L858R/T790M) (Homo sapiens, UniProt P00533, L858R/T790M)"
quantity = "IC50"
test_value = 0.022

[[record]]
compound = "Cc1cccc2nc(NC(=O)c3ccnnc3)n(C3CCCCN(C(=O)/C=C/CN(C)C)C3)c12 (stereo not shown)"
target_or_system = "EGFR(L858R/T790M) (Homo sapiens, UniProt P00533, L858R/T790M)"
quantity = "IC50"
test_value = 0.006


1. C=CC(=O)N1CCCCC(n2c(NC(=O)c3ccccc3)nc3cccc(C(=O)NCCS(C)(=O)=O)c32)C1 (stereo not shown)
2. Cc1cccc2nc(NC(=O)c3ncccn3)n(C3CCCCN(C(=O)/C=C/CN(C)C)C3)c12 (stereo not shown)
Form: Entry with minimum IC50 (choose one): 1 / 2 // respond with label for picked entry
1
(1: 0.147 µM, 2: 10.6 µM)
